Measured values drawn from ChEMBL document CHEMBL5500402 for this set.

Collected EC50 values appear next to each entry.
Molecular target: N-arachidonyl glycine receptor (Homo sapiens, UniProt Q14330)
Sequence (Q14330 whole entry): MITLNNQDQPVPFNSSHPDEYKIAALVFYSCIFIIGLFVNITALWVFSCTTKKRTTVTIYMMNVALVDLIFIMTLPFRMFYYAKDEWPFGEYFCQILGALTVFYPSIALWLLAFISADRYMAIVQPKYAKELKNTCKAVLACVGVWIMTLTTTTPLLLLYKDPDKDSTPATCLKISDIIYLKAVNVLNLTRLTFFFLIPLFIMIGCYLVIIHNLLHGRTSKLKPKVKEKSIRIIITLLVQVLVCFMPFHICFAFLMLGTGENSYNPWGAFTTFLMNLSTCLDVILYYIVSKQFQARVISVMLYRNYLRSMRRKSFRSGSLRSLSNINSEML
Experiment: Agonist activity at human GPR18 expressed in CHO cells assessed as activation by measuring beta-arrestin2 recruitment incubated for 90 mins by luminescence based assay
Assay type: functional, cell-based
measured endpoint: EC50 (nM)

[[record]]
input_smiles = "CCn1c(=O)n(C)c(=O)c2c1nc(NCCc1c[nH]c3ccccc13)n2Cc1ccc(Cl)cc1"
measurement_target = "N-arachidonyl glycine receptor (Homo sapiens, UniProt Q14330)"
measured_endpoint = "EC50"
unit_symbol = "nM"
value_measured = 95

[[record]]
input_smiles = "Cn1c(=O)c2c(nc(NCCc3c[nH]c4ccccc34)n2Cc2cccc(Cl)c2)n(C)c1=O"
measurement_target = "N-arachidonyl glycine receptor (Homo sapiens, UniProt Q14330)"
measured_endpoint = "EC50"
unit_symbol = "nM"
value_measured = 71

[[record]]
input_smiles = "COc1ccc(Cn2c(NCCc3c[nH]c4ccccc34)nc3c2c(=O)n(C)c(=O)n3C)cc1"
measurement_target = "N-arachidonyl glycine receptor (Homo sapiens, UniProt Q14330)"
measured_endpoint = "EC50"
unit_symbol = "nM"
value_measured = 138

